Procedure summary: Cmax in rat at 1 mg/kg, po
Assay type: ADME, organism-based
Design: dose 1 mg/kg, route oral
Condition summary: in vivo

Molecular string: Cc1cc[n+]([O-])c(C)c1C(=O)N1CCC(C)(N2CCC(N(c3ccccc3)c3cccnc3)CC2)CC1
Scale unit: ng/mL
Cmax: 5.8

* * *

Measured pIC50, listed per entry.
Measurement target: UniProt:P51681
Sequence (P51681 whole entry): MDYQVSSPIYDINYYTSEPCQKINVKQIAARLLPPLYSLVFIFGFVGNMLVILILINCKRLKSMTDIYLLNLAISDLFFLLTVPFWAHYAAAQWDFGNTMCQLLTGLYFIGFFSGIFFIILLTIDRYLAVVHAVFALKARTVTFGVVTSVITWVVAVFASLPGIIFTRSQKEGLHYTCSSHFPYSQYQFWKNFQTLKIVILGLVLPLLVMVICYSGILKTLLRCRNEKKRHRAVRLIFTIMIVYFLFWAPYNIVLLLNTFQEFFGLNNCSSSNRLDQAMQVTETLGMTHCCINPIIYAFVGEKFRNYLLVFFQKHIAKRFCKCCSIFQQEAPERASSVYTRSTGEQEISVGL
Procedure summary: Displacement of [125I]RANTES from human CCR5 expressed in CHO cells
Type: cell-based
pIC50: −log10 of the molar value.
Measurement kind: pIC50

Molecular string: Cc1cccc(C)c1C(=O)N1CCC(C)(N2CCC(N(c3ccccc3)c3cccnc3)CC2)CC1
Measured result: 9.30

Molecular string: Cc1cccnc1C(=O)N1CCC(C)(N2CCC(N(c3ccccc3)c3cccnc3)CC2)CC1
Measured result: 8.19

Molecular string: Cc1nc(CN(c2ccccc2)C2CCN(C3(C)CCN(C(=O)c4c(C)cc[n+]([O-])c4C)CC3)CC2)cs1
Measured result: 8.77

Molecular string: CC1(N2CCC(N(c3ccccc3)c3cccnc3)CC2)CCN(C(=O)c2c(Cl)c[n+]([O-])cc2Cl)CC1
Measured result: 9.00

Molecular string: Cc1cccc(C)c1C(=O)N1CCC(C)(N2CCC(N(c3ccccc3)c3ccncc3)CC2)CC1
Measured result: 8.70

Molecular string: Cc1ccnc(C)c1C(=O)N1CCC(C)(N2CCC(N(c3ccccc3)c3cccnc3)CC2)CC1
Measured result: 9.05

* * *

Procedure summary: AUC in rat at 1 mg/kg, po
Assay type: ADME, organism-based
Design: dose 1 mg/kg, route oral
Condition summary: plasma

Molecular string: Cc1cc[n+]([O-])c(C)c1C(=O)N1CCC(C)(N2CCC(N(c3ccccc3)c3cccnc3)CC2)CC1
AUC / ng·h/mL: 41

* * *

Procedure summary: AUC in dog at 1 mg/kg, po
Type: ADME, organism-based, Canis lupus familiaris
Parameters: dose 1 mg/kg, route oral
Condition summary: plasma
Measurement kind: AUC (ng·h/mL)

Molecular string: Cc1cc[n+]([O-])c(C)c1C(=O)N1CCC(C)(N2CCC(N(c3ccccc3)c3cccnc3)CC2)CC1
Measurement kind: AUC
Measured result: 278

* * *

Measurement target: Cytochrome P450 1A2 (Homo sapiens, UniProt P05177)
Sequence (P05177 whole entry): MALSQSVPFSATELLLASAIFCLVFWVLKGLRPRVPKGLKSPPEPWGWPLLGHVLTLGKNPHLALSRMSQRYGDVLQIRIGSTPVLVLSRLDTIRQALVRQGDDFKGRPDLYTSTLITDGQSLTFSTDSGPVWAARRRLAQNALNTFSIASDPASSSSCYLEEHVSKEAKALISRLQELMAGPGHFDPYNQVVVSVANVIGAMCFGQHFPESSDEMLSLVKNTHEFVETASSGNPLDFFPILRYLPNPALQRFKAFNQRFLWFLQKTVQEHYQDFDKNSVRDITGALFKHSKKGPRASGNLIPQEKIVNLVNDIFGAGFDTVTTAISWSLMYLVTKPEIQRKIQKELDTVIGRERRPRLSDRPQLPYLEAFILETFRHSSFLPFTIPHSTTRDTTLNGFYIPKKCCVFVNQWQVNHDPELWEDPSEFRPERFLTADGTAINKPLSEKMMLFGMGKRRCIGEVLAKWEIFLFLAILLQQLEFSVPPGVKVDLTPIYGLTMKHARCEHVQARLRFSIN
Measurement kind: IC50

Molecular string: Cc1cc[n+]([O-])c(C)c1C(=O)N1CCC(C)(N2CCC(N(c3ccccc3)c3cccnc3)CC2)CC1
Measured result: > 10 µM

* * *

Procedure summary: Oral bioavailability in rat
Type: ADME, organism-based
Condition summary: in vivo
Measurement kind: bioavailability (%)

Molecular string: Cc1cc[n+]([O-])c(C)c1C(=O)N1CCC(C)(N2CCC(N(c3ccccc3)c3cccnc3)CC2)CC1
Scale unit: %
Measured result: 22

* * *

Procedure summary: Solubility at pH 7.4
Format: physicochemical
Condition summary: buffer

Molecular string: Cc1cc[n+]([O-])c(C)c1C(=O)N1CCC(C)(N2CCC(N(c3ccccc3)c3cccnc3)CC2)CC1
solubility: > 12.5 mg/mL

* * *

Measurement target: C-C chemokine receptor type 5 (Macaca fascicularis)
Procedure summary: Displacement of radiolabeled MIP-1alpha from cynomolgus monkey CCR5 expressed in CHO cells
Type: cell-based
pIC50: −log10 of the molar value.
Measured pIC50, listed per entry.

Molecular string: CC1(N2CCC(N(c3ccccc3)c3cccnc3)CC2)CCN(C(=O)c2cccc3ccccc23)CC1
pIC50: 8.44

Molecular string: Cc1cc[n+]([O-])c(C)c1C(=O)N1CCC(C)(N2CCC(N(c3ccccc3)c3ccccc3)CC2)CC1
pIC50: 8.47

Molecular string: Cc1cccc(C)c1C(=O)N1CCC(C)(N2CCC(N(c3ccccc3)c3ccncc3)CC2)CC1
pIC50: 8.01
